Where do the numbers come from? From ChEMBL document CHEMBL3779892.

experimentSummary: Growth inhibition of human MOLT4 cells at 10 uM after 48 hrs by sulforhodamine B assay
Type: functional
measurementSetup: MOLT-4, 48 h, read-out: GI
observedProperty: inhibition of growth at 10 µM (%)
Only the number, expressed in %, is required.

# molecule, inhibition of growth at 10 µM / %
measured = [
    ("COc1ccc(Cc2nnc(Nc3ccc(NC(=O)Nc4ccc(C#N)cc4)cc3)c3ccccc23)cc1", 56),
]

Find the recorded inhibition of growth at 10 µM belonging to `COc1ccc(Cc2nnc(Nc3ccc(Cl)cc3)c3ccccc23)cc1` and report it.
48

Also, `COc1ccc(Cc2nnc(Nc3ccc(NC(=O)Nc4cccc(C(F)(F)F)c4)cc3)c3ccccc23)cc1` please.
37

---

experimentSummary: Growth inhibition of human MOLT4 cells at 10 uM after 48 hrs by sulforhodamine B assay
Format: functional
measurementSetup: MOLT-4, 48 h, read-out: GI
observedProperty: inhibition of growth at 10 µM

In the examples that follow, each entry is paired with its recorded inhibition of growth at 10 µM.
# molecule, inhibition of growth at 10 µM
records = [
    ("COc1ccc(Cc2nnc(Nc3cccc(OC)c3)c3ccccc23)cc1", "< 30%"),
    ("COc1ccc(Cc2nnc(Nc3ccc(NC(=O)Nc4ccccc4)cc3)c3ccccc23)cc1", "30%"),
    ("COc1ccc(Cc2nnc(Nc3ccc(NC(=O)Nc4ccc(OC)cc4)cc3)c3ccccc23)cc1", "47%"),
    ("COc1ccc(Cc2nnc(Nc3ccc(NC(=O)Nc4ccccc4Cl)cc3)c3ccccc23)cc1", "< 30%"),
    ("COc1ccc(Cc2nnc(Nc3cccc(C(F)(F)F)c3)c3ccccc23)cc1", "60%"),
]

Find the recorded inhibition of growth at 10 µM belonging to `COc1ccc(Cc2nnc(Nc3ccc(OC)cc3)c3ccccc23)cc1` and report it.
31%

Also, `COc1ccc(Cc2nnc(Nc3ccc(NC(=O)Nc4cccc(OC)c4)cc3)c3ccccc23)cc1` please.
< 30%

---

experimentSummary: Growth inhibition of human Caki1 cells at 10 uM after 48 hrs by sulforhodamine B assay
Format: functional
measurementSetup: CAKI-1, 48 h, read-out: GI
observedProperty: inhibition of growth at 10 µM

In the examples that follow, each entry is paired with its recorded inhibition of growth at 10 µM.
# molecule, inhibition of growth at 10 µM
records = [
    ("COc1ccc(Cc2nnc(Nc3ccc(NC(=O)Nc4cccc(OC)c4)cc3)c3ccccc23)cc1", "< 30%"),
    ("COc1ccc(Cc2nnc(Nc3ccc(NC(=O)Nc4ccc(C#N)cc4)cc3)c3ccccc23)cc1", "< 30%"),
    ("COc1ccc(Cc2nnc(Nc3ccc(C#N)cc3)c3ccccc23)cc1", "< 30%"),
    ("COc1ccc(Cc2nnc(Nc3ccc(NC(=O)Nc4ccccc4)cc3)c3ccccc23)cc1", "< 30%"),
    ("COc1ccc(Cc2nnc(Nc3ccc(NC(=O)Nc4cccc(C(F)(F)F)c4)cc3)c3ccccc23)cc1", "< 30%"),
    ("COc1ccc(Cc2nnc(Nc3ccc(NC(=O)Nc4ccccc4Cl)cc3)c3ccccc23)cc1", "< 30%"),
]

Find the recorded inhibition of growth at 10 µM belonging to `COc1ccc(Cc2nnc(Nc3ccc(NC(=O)Nc4ccc(Cl)cc4)cc3)c3ccccc23)cc1` and report it.
< 30%

Also, `COc1ccc(Cc2nnc(Nc3ccc(NC(=O)Nc4cccc(Cl)c4)cc3)c3ccccc23)cc1` please.
< 30%

Also, `COc1ccc(Cc2nnc(Nc3cccc(Cl)c3)c3ccccc23)cc1` please.
< 30%

---

System: MDA-MB-231
experimentSummary: Growth inhibition of human MDA-MB-231 cells at 10 uM after 48 hrs by sulforhodamine B assay
Assay type: functional
measurementSetup: MDA-MB-231, 48 h, read-out: GI
observedProperty: inhibition of growth at 10 µM

In the examples that follow, each entry is paired with its recorded inhibition of growth at 10 µM.
# molecule, recordedResult
measured = [
    ("COc1ccc(Cc2nnc(Nc3cccc(Cl)c3)c3ccccc23)cc1", "39%"),
    ("COc1ccc(Cc2nnc(Nc3ccccc3)c3ccccc23)cc1", "< 30%"),
    ("COc1ccc(Cc2nnc(Nc3ccc(OC)cc3)c3ccccc23)cc1", "36%"),
    ("COc1ccc(Cc2nnc(Nc3ccc(NC(=O)Nc4cccc(Cl)c4)cc3)c3ccccc23)cc1", "< 30%"),
    ("COc1ccc(Cc2nnc(Nc3ccc(NC(=O)Nc4ccccc4Cl)cc3)c3ccccc23)cc1", "< 30%"),
    ("COc1ccc(Cc2nnc(Nc3ccc(NC(=O)Nc4ccccc4)cc3)c3ccccc23)cc1", "31%"),
    ("COc1ccc(Cc2nnc(Nc3ccc(NC(=O)Nc4cccc(OC)c4)cc3)c3ccccc23)cc1", "< 30%"),
]

API: the following record is the query input.
Find the recorded inhibition of growth at 10 µM belonging to `COc1ccc(Cc2nnc(Nc3ccc(C#N)cc3)c3ccccc23)cc1` and report it.
< 30%

---

System: MCF7
experimentSummary: Growth inhibition of human MCF7 cells at 10 uM after 48 hrs by sulforhodamine B assay
Assay type: functional
measurementSetup: MCF7, 48 h, read-out: GI
observedProperty: inhibition of growth at 10 µM

In the examples that follow, each entry is paired with its recorded inhibition of growth at 10 µM.
# molecule, measurementTarget, observedProperty, recordedResult
rows = [
    ("COc1ccc(Cc2nnc(Nc3ccc(NC(=O)Nc4cccc(OC)c4)cc3)c3ccccc23)cc1", "MCF7", "inhibition of growth at 10 µM", "< 30%"),
    ("COc1ccc(Cc2nnc(Nc3ccc(C#N)cc3)c3ccccc23)cc1", "MCF7", "inhibition of growth at 10 µM", "< 30%"),
]

API: the following record is the query input.
Find the recorded inhibition of growth at 10 µM belonging to `COc1ccc(Cc2nnc(Nc3ccc(NC(=O)Nc4ccccc4)cc3)c3ccccc23)cc1` and report it.
< 30%

---

Documented inhibition of growth at 10 µM across a set of compounds
experimentSummary: Growth inhibition of human Caki1 cells at 10 uM after 48 hrs by sulforhodamine B assay
Type: functional
measurementSetup: CAKI-1, 48 h, read-out: GI

In the examples that follow, each entry is paired with its recorded inhibition of growth at 10 µM.
# molecule, inhibition of growth at 10 µM
records = [
    ("COc1ccc(Cc2nnc(Nc3ccc(Cl)cc3)c3ccccc23)cc1", "37%"),
    ("COc1ccc(Cc2nnc(Nc3cccc(C(F)(F)F)c3)c3ccccc23)cc1", "32%"),
    ("COc1ccc(Cc2nnc(Nc3ccc(OC)cc3)c3ccccc23)cc1", "< 30%"),
    ("COc1ccc(Cc2nnc(Nc3ccc(Cl)c(C(F)(F)F)c3)c3ccccc23)cc1", "35%"),
    ("COc1ccc(Cc2nnc(Nc3ccc(NC(=O)Nc4ccc(OC)cc4)cc3)c3ccccc23)cc1", "< 30%"),
]

Find the recorded inhibition of growth at 10 µM belonging to `COc1ccc(Cc2nnc(Nc3ccc(NC(=O)Nc4ccc(Cl)c(C(F)(F)F)c4)cc3)c3ccccc23)cc1` and report it.
< 30%

Also, `COc1ccc(Cc2nnc(Nc3ccccc3)c3ccccc23)cc1` please.
< 30%

Also, `COc1ccc(Cc2nnc(Nc3cccc(OC)c3)c3ccccc23)cc1` please.
< 30%
